Listed next: entries and their corresponding Ka.
- Study target: T1, recombinant human IL-23R/Fc chimera (R&D Systems) (human, UniProt Q5VWK5 24-353)
- T1 construct: bought; also called human IL-23R/Fc fusion protein; rhIL23RFc
- T1 sequence (looked up): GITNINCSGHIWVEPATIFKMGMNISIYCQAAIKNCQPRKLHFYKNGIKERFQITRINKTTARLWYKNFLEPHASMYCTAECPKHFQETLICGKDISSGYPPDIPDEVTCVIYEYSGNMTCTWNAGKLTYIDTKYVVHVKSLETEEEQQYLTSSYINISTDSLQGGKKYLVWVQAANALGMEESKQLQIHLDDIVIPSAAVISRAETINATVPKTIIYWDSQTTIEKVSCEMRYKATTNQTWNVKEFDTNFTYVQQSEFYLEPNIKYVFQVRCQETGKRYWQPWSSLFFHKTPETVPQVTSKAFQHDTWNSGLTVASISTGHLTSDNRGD
- Experiment summary: SPR (Biacore), captured IL-23R/Fc, ATRIMER

{"Binder": "105-20-2A3 ATRIMER (designed binder, not shown: C-terminal tag: Myc/His6 (pANA4) or HA-StrepII (pANA10); A Ser left at the ompA junction may also sit at the N-terminus) EPPTQKPKKIVNAKKDVVNTKMFEELKSRLDTLAQEVALLKEQQALQTVCLKGTKVHMKCFLAFTQTKTFHEASEDCISRGGTLSTPQTGSENDALYEYLRQSVGNEAEIWLGLNGSPITNTWVDMTGARIAYKNWETEITAQPDGGFGYFGENCAVLSGAANGKWFDKRCRDQLPYICQFGIV", "Unit symbol": "M⁻¹", "Ka": "1.32e+09"}
{"Binder": "101-113-6C108 ATRIMER (designed binder) EPPTQKPKKIVNAKKDVVNTKMFEELKSRLDTLAQEVALLKEQQALQTVCLKGTKVHMKCFLAFTQTKTFHEASEDCISRGGTLSTPQTGSENDALYEYLRQSVGNEAEIWLGLNGSALTNTWVDMTGARIAYKNWEPPPPHHPMGGFGVFGENCAVLSGAANGKWFDKRCRDQLPYICQFGIV", "Unit symbol": "M⁻¹", "Ka": "1.63e+09"}
{"Binder": "105-20-2F12 ATRIMER (designed binder, not shown: C-terminal tag: His/Myc (pANA4) or HA-StrepII (pANA10)) EPPTQKPKKIVNAKKDVVNTKMFEELKSRLDTLAQEVALLKEQQALQTVCLKGTKVHMKCFLAFTQTKTFHEASEDCISRGGTLSTPQTGSENDALYEYLRQSVGNEAEIWLGLNGSKLTDTWVDMTGARIAYKNWETEITAQPDGGFGYFGENCAVLSGAANGKWFDKRCRDQLPYICQFGIV", "Unit symbol": "M⁻¹", "Ka": "5.41e+08"}
{"Binder": "105-08-1A3 ATRIMER (designed binder, not shown: C-terminal tag: Myc/His6 (pANA4) or HA-StrepII (pANA10); A Ser left at the ompA junction may also sit at the N-terminus) EPPTQKPKKIVNAKKDVVNTKMFEELKSRLDTLAQEVALLKEQQALQTVCLKGTKVHMKCFLAFTQTKTFHEASEDCISRGGTLSTPQTGSENDALYEYLRQSVGNEAEIWLGLNGSPRTDTWVDMTGARIAYKNWETEITAQPDGGWGVFGENCAVLSGAANGKWFDKRCRDQLPYICQFGIV", "Unit symbol": "M⁻¹", "Ka": "2.11e+09"}
{"Binder": "A4A ATRIMER (designed binder, Forms a homotrimer through the tetranectin coiled coil; one protomer is given., also called 001-87.A4A) EPPTQKPKKIVNAKKDVVNTKMFEELKSRLDTLAQEVALLKEQQALQTVCLKGTKVHMKCFLAFTQTKTFHEASEDCISRGGTLSTPQTGSENDALYEYLRQSVGNEAEIWLGLNWTLAKNLWVDMTGARIAYKNWETEITAQPDGGLFGRGENCAVLSGAANGKWFDKRCRDQLPYICQFGIV", "Unit symbol": "M⁻¹", "Ka": "1.24e+08"}
{"Binder": "C3C ATRIMER (designed binder, Forms a homotrimer through the tetranectin coiled coil; one protomer is given., also called 001-89.C3C) EPPTQKPKKIVNAKKDVVNTKMFEELKSRLDTLAQEVALLKEQQALQTVCLKGTKVHMKCFLAFTQTKTFHEASEDCISRGGTLSTPQTGSENDALYEYLRQSVGNEAEIWLGLNANRRRTMWVDMTGARIAYKNWETEITAQPDGGMGVWGENCAVLSGAANGKWFDKRCRDQLPYICQFGIV", "Unit symbol": "M⁻¹", "Ka": "1.2e+08"}
{"Binder": "B9B ATRIMER (designed binder, Forms a homotrimer through the tetranectin coiled coil; one protomer is given., also called 056-41.B9B) EPPTQKPKKIVNAKKDVVNTKMFEELKSRLDTLAQEVALLKEQQALQTVCLKGTKVHMKCFLAFTQTKTFHEASEDCISRGGTLSTPQTGSENDALYEYLRQSVGNEAEIWLGLNAPPDLGLWVDMTGARIAYKNWETEITAQPDGGWGVWGENCAVLSGAANGKWFDKRCRDQLPYICQFGIV", "Unit symbol": "M⁻¹", "Ka": "1.94e+08"}
{"Binder": "101-51-1A4 ATRIMER (designed binder, also called ATRIMER complex 1A4) EPPTQKPKKIVNAKKDVVNTKMFEELKSRLDTLAQEVALLKEQQALQTVCLKGTKVHMKCFLAFTQTKTFHEASEDCISRGGTLSTPQTGSENDALYEYLRQSVGNEAEIWLGLNGSALTNTWVDMTGARIAYKNWERPALVQPRGGFGVFGENCAVLSGAANGKWFDKRCRDQLPYICQFGIV", "Unit symbol": "M⁻¹", "Ka": "2.58e+09"}
{"Binder": "101-51-1A5 ATRIMER (designed binder) EPPTQKPKKIVNAKKDVVNTKMFEELKSRLDTLAQEVALLKEQQALQTVCLKGTKVHMKCFLAFTQTKTFHEASEDCISRGGTLSTPQTGSENDALYEYLRQSVGNEAEIWLGLNGSALTNTWVDMTGARIAYKNWENGHEPQPRGGFGYFGENCAVLSGAANGKWFDKRCRDQLPYICQFGIV", "Unit symbol": "M⁻¹", "Ka": "1.71e+09"}
{"Binder": "101-51-1A7 ATRIMER (designed binder) EPPTQKPKKIVNAKKDVVNTKMFEELKSRLDTLAQEVALLKEQQALQTVCLKGTKVHMKCFLAFTQTKTFHEASEDCISRGGTLSTPQTGSENDALYEYLRQSVGNEAEIWLGLNGSALTNTWVDMTGARIAYKNWERPPLYQPGGGWGVFGENCAVLSGAANGKWFDKRCRDQLPYICQFGIV", "Unit symbol": "M⁻¹", "Ka": "2.24e+09"}
{"Binder": "4G8 ATRIMER (designed binder, Forms a homotrimer through the tetranectin coiled coil; one protomer is given., made in E. coli; also called 001-69.4G8; ATRIMER complex 4G8) EPPTQKPKKIVNAKKDVVNTKMFEELKSRLDTLAQEVALLKEQQALQTVCLKGTKVHMKCFLAFTQTKTFHEASEDCISRGGTLSTPQTGSENDALYEYLRQSVGNEAEIWLGLNGSRRSGVWVDMTGARIAYKNWETEITAQPDGGFGVFGENCAVLSGAANGKWFDKRCRDQLPYICQFGIV", "Unit symbol": "M⁻¹", "Ka": "1.35e+08"}
